target-of-assay: Nuclear receptor ROR-gamma (Homo sapiens)
Sequence (whole entry): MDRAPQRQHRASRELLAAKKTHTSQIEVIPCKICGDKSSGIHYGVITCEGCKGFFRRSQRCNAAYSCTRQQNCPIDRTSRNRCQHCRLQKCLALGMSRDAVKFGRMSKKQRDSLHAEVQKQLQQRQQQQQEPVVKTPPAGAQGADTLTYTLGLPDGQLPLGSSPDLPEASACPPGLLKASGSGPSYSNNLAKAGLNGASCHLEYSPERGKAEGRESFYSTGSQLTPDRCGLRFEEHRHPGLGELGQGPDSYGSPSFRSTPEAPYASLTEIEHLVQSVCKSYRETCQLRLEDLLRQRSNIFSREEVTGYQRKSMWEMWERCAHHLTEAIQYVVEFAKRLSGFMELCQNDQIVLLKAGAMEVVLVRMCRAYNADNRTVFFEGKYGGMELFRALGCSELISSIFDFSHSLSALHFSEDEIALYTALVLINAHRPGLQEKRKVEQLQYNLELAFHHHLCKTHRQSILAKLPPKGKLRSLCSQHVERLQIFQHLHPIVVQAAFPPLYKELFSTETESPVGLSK
endpoint-name: ΔTm (°C)

Take a look at these entries with their results.
Summary for this molecule, Cc1ccc(S(=O)(=O)N(CC(=O)Nc2ccc(C#N)cc2)c2cccc(C(F)(F)F)c2)cc1 : ΔTm is 3.5

Summary for this molecule, Cc1ccc(N(CC(=O)Nc2ccc(C#N)cc2)S(=O)(=O)Cc2ccc(F)cc2)cc1 : ΔTm is 2.5

Summary for this molecule, Cc1ccc(S(=O)(=O)N(CC(=O)NCc2ccncc2)c2cccc(C(F)(F)F)c2)cc1 : ΔTm is 2.2

Summary for this molecule, Cc1ccc(S(=O)(=O)N(CC(=O)Nc2ccc(F)cc2F)c2cccc(C(F)(F)F)c2)cc1 : ΔTm is 1.8

A. Cc1ccc(CNC(=O)CN(c2cccc(C(F)(F)F)c2)S(=O)(=O)c2ccc(C)cc2)cc1
B. Cc1ccc(N(CC(=O)Nc2ccc(C#N)cc2)S(=O)(=O)c2ccc(F)cc2)cc1
C. Cc1ccc(N(CC(=O)Nc2ccc(C#N)cc2)S(=O)(=O)Cc2ccccc2)cc1
Lookup: Descending sort on ΔTm required. Give the order by naming the labels one after another as requested.
Found: B, C, A
(B: 2.8 °C, C: 1.71 °C, A: 1 °C)

A. CC(=O)c1ccc(NC(=O)CN(c2cccc(C(F)(F)F)c2)S(=O)(=O)c2ccc(C)cc2)cc1
B. Cc1ccc(S(=O)(=O)N(CC(=O)NC2CCCCC2)c2cccc(C(F)(F)F)c2)cc1
Lookup: Hi there, can you help? I need to know whether A or B has lower measured ΔTm. State your choice using its label.
Found: B

====

Here we list molecules with their recorded ΔTm when tested on Nuclear receptor ROR-gamma (Homo sapiens) (UniProt P51449).
endpoint-name: ΔTm (°C)

P. Cc1ccc(S(=O)(=O)N(CC(=O)Nc2ccc(C(O)(C(F)(F)F)C(F)(F)F)cc2)c2cccc(C(F)(F)F)c2)cc1
Q. Cc1ccc(S(=O)(=O)N(CC(=O)Nc2ccc(C#N)cc2)c2ccc(Cl)c(Cl)c2)cc1
R. COC(=O)c1ccccc1NC(=O)CN(c1cccc(C(F)(F)F)c1)S(=O)(=O)c1ccc(C)cc1
S. Cc1ccc(S(=O)(=O)N(CC(=O)NCc2ccc(O)cc2)c2cccc(C(F)(F)F)c2)cc1
Lookup: I'd appreciate it if you could rank the molecules mentioned above by ΔTm, largest value first. Give the order by naming the labels one after another as requested.
Found: Q, R, S, P
(Q: 3.5 °C, R: 2.1 °C, S: 1 °C, P: 0.5 °C)

====

target-of-assay: Nuclear receptor ROR-gamma (Homo sapiens)
assay-info: Inhibition of Gal4-RORgamma-LBD (180 to 507 residues) (unknown origin) expressed in HEK293T cells after 24 hrs by dual-luciferase reporter assay
Format: cell-based, HEK-293T
protocol-conditions: read-out: IC50
endpoint-name: IC50 (µM)

Take a look at these entries with their results.
Summary for this compound, Cc1ccc(S(=O)(=O)N(CC(=O)Nc2ccc(F)cc2)c2cccc(C(F)(F)F)c2)cc1 : IC50 is 3.37

Summary for this compound, Cc1ccc(S(=O)(=O)N(CC(=O)Nc2ccc(C#N)cc2)c2ccc(C#N)cc2)cc1 : IC50 is 1.31

Summary for this compound, COC(=O)c1cccc(NC(=O)CN(c2cccc(C(F)(F)F)c2)S(=O)(=O)c2ccc(C)cc2)c1 : IC50 is 6.06

a. Cc1ccc(S(=O)(=O)N(CC(=O)Nc2ccc(C#N)cc2)c2ccc(F)cc2)cc1
b. CC(=O)N1CCN(C(=O)CN(c2cccc(C(F)(F)F)c2)S(=O)(=O)c2ccc(C)cc2)CC1
c. Cc1ccc(S(=O)(=O)N(CC(=O)O)c2cccc(C(F)(F)F)c2)cc1
d. Cc1ccc(S(=O)(=O)N(CC(=O)NCc2ccc(O)cc2)c2cccc(C(F)(F)F)c2)cc1
Lookup: Descending sort on IC50 required. Give the order by naming the labels one after another as requested.
Found: c, d, b, a

a. Cc1ccc(CNC(=O)CN(c2cccc(C(F)(F)F)c2)S(=O)(=O)c2ccc(C)cc2)cc1
b. CC(=O)c1ccc(NC(=O)CN(c2cccc(C(F)(F)F)c2)S(=O)(=O)c2ccc(C)cc2)cc1
Lookup: From the recorded data, which exceeds the other in IC50: a or b ? State your choice using its label.
Found: a

====

target-of-assay: UniProt:P51449
assay-info: Displacement of N-terminal biotinylated SRC1-4 coactivator peptide from N-terminal His6-fused human RORgamma-LBD (262 to 507 residues) expressed in Escherichia coli BL21 (DE3) by luminescence-based Alphascreen assay
protocol-conditions: read-out: IC50
pIC50: −log10 of the molar value.
endpoint-name: pIC50

Summary for this molecule, Cc1ccc(S(=O)(=O)N(CC(=O)Nc2nc(C)cs2)c2cccc(C(F)(F)F)c2)cc1 : pIC50 is 4.80

Summary for this molecule, CC(=O)N1CCN(C(=O)CN(c2cccc(C(F)(F)F)c2)S(=O)(=O)c2ccc(C)cc2)CC1 : pIC50 is 3.76

Summary for this molecule, Cc1ccc(S(=O)(=O)N(CC(=O)Nc2ccc(C#N)cc2)c2ccc(C#N)cc2)cc1 : pIC50 is 4.18

I. Cc1ccc(S(=O)(=O)N(CC(=O)Nc2ccc(OCc3ccccc3)cc2)c2cccc(C(F)(F)F)c2)cc1
II. Cc1ccc(S(=O)(=O)N(CC(=O)Nc2ccc(C(N)=O)cc2)c2cccc(C(F)(F)F)c2)cc1
Lookup: From the recorded data, which exceeds the other in pIC50: I or II ? State your choice using its label.
Found: II
(II: 4.46, I: 4.03)

I. Cc1ccc(N(CC(=O)Nc2ccc(C#N)cc2)S(=O)(=O)Cc2ccccc2)cc1
II. Cc1ccc(S(=O)(=O)N(CC(=O)Nc2ccc(F)cc2F)c2cccc(C(F)(F)F)c2)cc1
Lookup: From the recorded data, which exceeds the other in pIC50: I or II ? State your choice using its label.
Found: I
(I: 4.43, II: 4.20)

====

Here we list compounds with their recorded ΔTm when tested on Nuclear receptor ROR-gamma (Homo sapiens).
endpoint-name: ΔTm (°C)

Take a look at these entries with their results.
Summary for this compound, Cc1ccc(S(=O)(=O)N(CC(=O)Nc2ccc(O)cc2)c2cccc(C(F)(F)F)c2)cc1 : ΔTm is 1.6

Summary for this compound, Cc1ccc(S(=O)(=O)N(CC(=O)Nc2ccc(C(N)=O)cc2)c2cccc(C(F)(F)F)c2)cc1 : ΔTm is 1.9

Summary for this compound, Cc1ccc(S(=O)(=O)N(CC(=O)NCc2ccc(F)cc2)c2cccc(C(F)(F)F)c2)cc1 : ΔTm is 1.07

I. Cc1ccc(S(=O)(=O)N(CC(=O)Nc2ccc(C#N)cc2)c2ccc(F)cc2)cc1
II. Cc1ccc(S(=O)(=O)N(CC(=O)Nc2nc(C)cs2)c2cccc(C(F)(F)F)c2)cc1
Lookup: Hi there, can you help? I need to know whether I or II has lower measured ΔTm. State your choice using its label.
Found: II

====

target-of-assay: Nuclear receptor ROR-gamma (Homo sapiens, UniProt P51449)
Sequence (P51449 whole entry): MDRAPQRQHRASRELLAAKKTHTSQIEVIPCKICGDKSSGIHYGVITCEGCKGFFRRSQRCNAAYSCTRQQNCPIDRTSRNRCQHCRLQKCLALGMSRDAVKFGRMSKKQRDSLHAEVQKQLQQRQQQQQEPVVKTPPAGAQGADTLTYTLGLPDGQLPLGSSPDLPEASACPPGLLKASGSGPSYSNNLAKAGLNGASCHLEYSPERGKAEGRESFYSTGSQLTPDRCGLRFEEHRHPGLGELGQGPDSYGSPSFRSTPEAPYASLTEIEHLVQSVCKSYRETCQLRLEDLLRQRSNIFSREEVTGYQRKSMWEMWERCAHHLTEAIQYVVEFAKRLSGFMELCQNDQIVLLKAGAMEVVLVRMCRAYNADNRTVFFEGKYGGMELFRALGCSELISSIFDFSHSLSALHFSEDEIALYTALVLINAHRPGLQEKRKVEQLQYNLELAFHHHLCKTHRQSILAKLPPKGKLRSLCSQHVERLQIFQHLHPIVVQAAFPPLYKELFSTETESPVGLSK
assay-info: Inhibition of Gal4-RORgamma-LBD (180 to 507 residues) (unknown origin) expressed in HEK293T cells after 24 hrs by dual-luciferase reporter assay
Assay type: cell-based, HEK-293T
protocol-conditions: read-out: IC50
pIC50: −log10 of the molar value.
endpoint-name: pIC50

Take a look at these entries with their results.
Summary for this compound, Cc1ccc(S(=O)(=O)N(CC(=O)Nc2ccc(C#N)cc2)c2cccc(C(F)(F)F)c2)cc1 : pIC50 is 6.05

Summary for this compound, COC(=O)c1ccc(NC(=O)CN(c2cccc(C(F)(F)F)c2)S(=O)(=O)c2ccc(C)cc2)cc1 : pIC50 is 5.40

Summary for this compound, Cc1ccc(S(=O)(=O)N(CC(=O)NCc2ccncc2)c2cccc(C(F)(F)F)c2)cc1 : pIC50 is 5.08

Summary for this compound, COC(=O)c1ccccc1NC(=O)CN(c1cccc(C(F)(F)F)c1)S(=O)(=O)c1ccc(C)cc1 : pIC50 is 5.86

Summary for this compound, Cc1ccc(S(=O)(=O)N(CC(=O)NC2CCCCC2)c2cccc(C(F)(F)F)c2)cc1 : pIC50 is 5.99

Summary for this compound, COc1ccc(NC(=O)CN(c2cccc(C(F)(F)F)c2)S(=O)(=O)c2ccc(C)cc2)cc1OC : pIC50 is 5.61

Summary for this compound, Cc1ccc(S(=O)(=O)N(CC(=O)Nc2ccc(C#N)cc2)c2ccc(C(F)(F)F)cc2)cc1 : pIC50 is 6.21

Summary for this compound, Cc1ccc(S(=O)(=O)N(CC(=O)Nc2ccc(O)cc2)c2cccc(C(F)(F)F)c2)cc1 : pIC50 is 5.08

Summary for this compound, Cc1ccc(S(=O)(=O)N(CC(=O)Nc2nc(C)cs2)c2cccc(C(F)(F)F)c2)cc1 : pIC50 is 5.44

Summary for this compound, Cc1ccc(S(=O)(=O)N(CC(=O)Nc2ccc(C#N)cc2)c2ccc(Cl)c(Cl)c2)cc1 : pIC50 is 6.20

a. Cc1ccc(N(CC(=O)Nc2ccc(C#N)cc2)S(=O)(=O)c2ccc(F)cc2)cc1
b. Cc1ccc(S(=O)(=O)N(CC(=O)Nc2ccc(C(N)=O)cc2)c2cccc(C(F)(F)F)c2)cc1
Lookup: Hi there, can you help? I need to know whether a or b has lower measured pIC50. State your choice using its label.
Found: a

P. Cc1ccc(N(CC(=O)Nc2ccc(C#N)cc2)S(=O)(=O)Cc2ccc(F)cc2)cc1
Q. Cc1ccc(S(=O)(=O)N(CC(=O)NCc2ccc(F)cc2)c2cccc(C(F)(F)F)c2)cc1
Lookup: From the recorded data, which exceeds the other in pIC50: P or Q ? State your choice using its label.
Found: P

a. Cc1ccc(N(CC(=O)Nc2ccc(C#N)cc2)S(=O)(=O)Cc2ccccc2)cc1
b. Cc1ccc(S(=O)(=O)N(CC(=O)Nc2ccc(F)cc2F)c2cccc(C(F)(F)F)c2)cc1
Lookup: Hi there, can you help? I need to know whether a or b has lower measured pIC50. State your choice using its label.
Found: b
